Parameter: growth inhibition. Scope: all listed entries.
assay procedure: NCI Yeast Anticancer Drug Screen. Data for the bub3 strain (AID 167)
assay context: S. cerevisiae bub3 mutant strain, active compounds read high; at 50.0 µM unless noted
About 79,000 compounds went through this panel and 15% of them were active in at least one assay; those are over-represented in the sample as a whole.
// units = %; emit number, no label

Below, 3 molecules whose answers are already recorded.
O=CC(NC(=O)N(CCCl)N=O)C(O)C(O)C(O)CO (stereo unspecified) : -4.95
CSc1nc(C)cc(Nc2ccc(O)c(CN3CCCCC3)c2)n1 : -32.6
N#C/C(=C\c1cc(Cl)cc(Cl)c1O)c1nc2ccccc2[nH]1 : 26.9

INPUT: Bench note: what growth inhibition did COc1ccc(/C=C2\N=C(N3CCCC(CO)C3)NC2=O)cc1 (stereo unspecified) show?
OUTPUT: -3.85

INPUT: Item under review: N#Cc1ccc2c(c1)-c1cc(C#N)ccc1C2c1ccccc1 . Reported growth inhibition?
OUTPUT: -4.8

INPUT: Dear colleague, I am looking for the recorded growth inhibition of the following molecule: COc1ccc(NC(=O)C(C)Oc2ccc(OCC3CCCCC3)cc2)cc1 (stereo unspecified)
OUTPUT: -56.9

INPUT: Which measured growth inhibition value corresponds to NC(N)=N/N=C(/c1ccccc1)c1ccc(O)cc1O ?
OUTPUT: -48.6

INPUT: Quick check: growth inhibition of CC(=O)OCC1CCCC(C)C1COC(C)=O (stereo unspecified) ?
OUTPUT: 20.3

INPUT: Entry COc1ccc(NC(=O)/C(=N\NC(=O)C[n+]2ccccc2)c2c(O)c3ccc(O)cc3oc2=O)c([N+](=O)[O-])c1 : reported growth inhibition = ?
OUTPUT: 39.5

INPUT: So what's the measured growth inhibition for this one? COC(=O)c1cc2ccc(OC(C)=O)c(OC(C)=O)c2cn1
OUTPUT: 3.35

INPUT: # input molecule: N#CC(C(=S)Nc1ccccc1)=C1Nc2ccccc2N1 ; wanted: its growth inhibition
OUTPUT: -20.1
